- System: HCT116p53−/− (p53 gene null variant of HCT116)
- method: MTS cytotoxicity assay, HCT116p53−/−
- Format: cell-based
- test_context: Homo sapiens, HCT-116; MTS assay, 72-h incubation, mean ± SD of 3 independent experiments; read-out: IC50 cytotoxic activity HCT116p53-
measured_endpoint: log10 of IC50 (log10 of the value in nM)
# log10 transformed; quantity=IC50; unit=nM

Check out these entries, answers already filled in.
>>> recorded_number("C[C@]12CC[C@@H]3c4ccc(O)cc4CC[C@H]3[C@@H]1CC[C@@]2(O)c1cn(Cc2cccc(Cn3cc([C@]4(O)CC[C@H]5[C@@H]6CCc7cc(O)ccc7[C@H]6CC[C@@]54C)nn3)n2)nn1 [ED, reference compound]")
2.95
>>> recorded_number("C#C[C@]1(O)CC[C@H]2[C@@H]3CCc4cc(O)ccc4[C@H]3CC[C@@]21C [EE, 17α-ethinylestradiol, reference compound]")
4.53
>>> recorded_number("C[C@]12CC[C@@H]3c4ccc(O)cc4CC[C@H]3[C@@H]1CC[C@@]2(O)c1cn(Cc2cc(Cn3cc([C@]4(O)CC[C@H]5[C@@H]6CCc7cc(O)ccc7[C@H]6CC[C@@]54C)nn3)cc(OCCO)c2)nn1")
3.30

Name the recorded log10 of IC50 of the compound listed here: `COc1cc(Cn2cc([C@]3(O)CC[C@H]4[C@@H]5CCc6cc(O)ccc6[C@H]5CC[C@@]43C)nn2)cc(Cn2cc([C@]3(O)CC[C@H]4[C@@H]5CCc6cc(O)ccc6[C@H]5CC[C@@]43C)nn2)c1` 2.65

Name the recorded log10 of IC50 of the compound listed here: COc1cc2c(cc1O)CC[C@@H]1[C@@H]2CC[C@]2(C)[C@@H](O)CC[C@@H]12 [ME, 2-methoxyestradiol, reference compound] 3.30

Attribution: paper PMC467089
